MRGPRX4 activation, fluorescence change (dF/F0), Average values, listed per item
target: MRGPRX4 (Homo sapiens); experiment: MRGPRX4 activation, Fluo-8 Ca2+ FLIPR assay in HEK293T cells stably expressing MRGPRX4; type: cell-based; conditions: Conc. (Log[M]) −5.5

// query Give the measured MRGPRX4 activation, fluorescence change (dF/F0), Average of CC[C@H]1[C@@H](O)[C@@H]2[C@H](CC[C@]3(C)[C@@H]([C@H](C)CCNC(=O)NS(=O)(=O)c4ccc5c(c4)CCN5C(C)=O)CC[C@@H]23)[C@@]2(C)CCCC[C@@H]12 .
// result 0.020

// query Give the measured MRGPRX4 activation, fluorescence change (dF/F0), Average of CC[C@H]1[C@@H](O)[C@@H]2[C@H](CC[C@]3(C)[C@@H]([C@H](C)CCNC(=O)NS(=O)(=O)C4CCC(C)(C)CC4)CC[C@@H]23)[C@@]2(C)CCCC[C@@H]12 .
// result 0.020

// query Give the measured MRGPRX4 activation, fluorescence change (dF/F0), Average of C[C@H](CCC(C)(C)O)[C@H]1CC[C@H]2[C@@H]3CC[C@@H]4CCCC[C@]4(C)[C@H]3CC[C@]12C .
// result −0.031

// query Give the measured MRGPRX4 activation, fluorescence change (dF/F0), Average of COC(=O)CC[C@@H](C)[C@H]1CC[C@H]2[C@@H]3/C(=N\OC(C)(C)C(=O)O)C[C@@H]4C[C@H](OC(C)=O)CC[C@]4(C)[C@H]3CC[C@]12C .
// result −0.026

// query Give the measured MRGPRX4 activation, fluorescence change (dF/F0), Average of CC[C@H]1[C@@H](O)[C@@H]2[C@H](CC[C@]3(C)[C@@H]([C@H](C)CC#N)CC[C@@H]23)[C@@]2(C)CCCC[C@@H]12 .
// result −0.018

// query Give the measured MRGPRX4 activation, fluorescence change (dF/F0), Average of C[C@H](CCC(=O)O)[C@H]1CC[C@H]2[C@@H]3CC[C@@H]4C[C@@H](O)CC[C@]4(C)[C@H]3C[C@H](O)[C@]12C .
// result 0.030

====

molecular target: MRGPRX4 (Homo sapiens, UniProt Q96LA9); experiment: MRGPRX4 activation, Fluo-8 Ca2+ FLIPR assay in HEK293T cells stably expressing MRGPRX4; type: cell-based; conditions: Conc. (Log[M]) −5.5
Sequence (Q96LA9 whole entry): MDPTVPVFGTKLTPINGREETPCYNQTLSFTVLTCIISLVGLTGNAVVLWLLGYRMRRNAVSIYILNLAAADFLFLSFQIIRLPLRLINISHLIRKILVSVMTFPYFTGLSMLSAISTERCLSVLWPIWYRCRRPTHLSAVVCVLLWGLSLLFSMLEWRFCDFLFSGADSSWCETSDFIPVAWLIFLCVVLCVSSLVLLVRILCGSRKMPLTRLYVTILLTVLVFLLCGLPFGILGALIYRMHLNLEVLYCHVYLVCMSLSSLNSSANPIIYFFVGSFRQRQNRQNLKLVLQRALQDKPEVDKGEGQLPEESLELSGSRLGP
Endpoint Label: MRGPRX4 activation, fluorescence change (dF/F0), Average
Quick one: just the number, no unit, thanks!

Use the examples below as a reference point.
1. C[C@H](CCCC(=O)O)[C@H]1CC[C@H]2[C@@H]3CC[C@@H]4C[C@H](O)CC[C@]4(C)[C@H]3C[C@H](O)[C@]12C [RC-2]    0.034
2. CC[C@H]1[C@@H](O)[C@@H]2[C@H](CC[C@]3(C)[C@@H]([C@H](C)CO)CC[C@@H]23)[C@@]2(C)CCCC[C@@H]12 [compound 73]    −0.031
3. CC[C@H]1[C@@H](OC(=O)c2cccc(I)c2)[C@@H]2[C@H](CC[C@@]3(C)[C@H]2CC[C@]3(Cl)[C@H](C)CCC(=O)OC)[C@@]2(C)CCCC[C@@H]12 [1-6]    −0.012
4. CC[C@H]1[C@@H](O)[C@@H]2[C@H](CC[C@]3(C)[C@@H]([C@H](C)CCNC(=O)NS(=O)(=O)c4ccc5c(c4)OCO5)CC[C@@H]23)[C@@]2(C)CCCC[C@@H]12 [5-6]    0.017

// query Form entry - test system: MRGPRX4 (Homo sapiens, UniProt Q96LA9); read-out: MRGPRX4 activation, fluorescence change (dF/F0), Average; compound: CC[C@H]1[C@@H](O)[C@@H]2[C@H](CC[C@]3(C)[C@@H]([C@H](C)CCNC(=O)NS(=O)(=O)c4cccc(Cl)c4)CC[C@@H]23)[C@@]2(C)CCCC[C@@H]12 [5-7]
// result 0.020

====

MRGPRX4 activation, Average values, listed per item
biological target: MRGPRX4 (Homo sapiens); test: MRGPRX4 activation, Fluo-8 Ca2+ FLIPR assay in HEK293T cells stably expressing MRGPRX4; format: cell-based; set-up: key: fluorescence change dF/F0; settings: E3-9, Conc. (Log[M]) −8.3
Quick one: just the number, no unit, thanks!

Use the examples below as a reference point.
1) CC[C@H]1[C@@H](O)[C@@H]2[C@H](CC[C@]3(C)[C@@H]([C@H](C)CCNC(=O)NS(=O)(=O)c4cc(F)ccc4F)CC[C@@H]23)[C@@]2(C)CC[C@H](F)C[C@@H]12    0.019
2) CC[C@H]1[C@@H](O)[C@@H]2[C@H](CC[C@]3(C)[C@@H]([C@H](C)CCNC(=S)NS(=O)(=O)c4ccc(C(C)(C)CF)cc4)CC[C@@H]23)[C@@]2(C)CCC(F)(F)C[C@@H]12    0.022
3) CC[C@H]1[C@@H](O)[C@@H]2[C@H](CC[C@]3(C)[C@@H]([C@H](C)CCNC(=O)NS(=O)(=O)c4cccs4)CC[C@@H]23)[C@@]2(C)CCCC[C@@H]12    0.018
4) CC[C@H]1[C@@H](O)[C@@H]2[C@H](CC[C@]3(C)[C@@H]([C@H](C)CCN=C=S)CC[C@@H]23)[C@@]2(C)CCCC[C@@H]12    0.011

// query Form entry - test system: MRGPRX4 (Homo sapiens); read-out: MRGPRX4 activation, Average; compound: CC[C@H]1[C@@H](O)[C@@H]2[C@H](CC[C@]3(C)[C@@H]([C@H](C)CCNC(=O)NS(=O)(=O)c4cc(F)ccc4F)CC[C@@H]23)[C@@]2(C)CCC(F)(F)C[C@@H]12
// result 0.018

====

molecular target: MRGPRX4 (Homo sapiens); test: MRGPRX4 activation, Fluo-8 Ca2+ FLIPR assay in HEK293T cells stably expressing MRGPRX4; type: cell-based; set-up: key: fluorescence change dF/F0; conditions: E3-9, Conc. (Log[M]) −5.9
MRGPRX4 activation, Average values, listed per item
Quick one: just the number, no unit, thanks!

Use the examples below as a reference point.
1) CC[C@H]1[C@@H](O)[C@@H]2[C@H](CC[C@]3(C)[C@@H]([C@H](C)CCNC(=O)NS(=O)(=O)c4ccc5c(c4)CCC(C)(C)O5)CC[C@@H]23)[C@@]2(C)CCCC[C@@H]12 [5-29]    0.016
2) CC[C@H]1[C@@H](O)[C@@H]2[C@H](CC[C@]3(C)[C@@H]([C@H](C)CCNC(=O)NS(=O)(=O)c4ccc(Br)cc4OC(F)(F)F)CC[C@@H]23)[C@@]2(C)CC[C@H](F)C[C@@H]12 [9-6]    0.019
3) CC[C@H]1[C@@H](O)[C@@H]2[C@H](CC[C@]3(C)[C@@H]([C@H](C)CCNS(=O)(=O)CC(C)C)CC[C@@H]23)[C@@]2(C)CCCC[C@@H]12 [6-4]    0.016
4) CC[C@H]1[C@@H](O)[C@@H]2[C@H](CC[C@]3(C)[C@@H]([C@H](C)CCNC(=O)NS(=O)(=O)c4ccc(N5CCCCC5)nc4)CC[C@@H]23)[C@@]2(C)CCCC[C@@H]12 [5-30]    0.018
5) [2H]C1([2H])CC[C@@]2(C)[C@@H](C1)[C@@H](CC)[C@@H](O)[C@@H]1[C@@H]2CC[C@]2(C)[C@@H]([C@H](C)CCNC(=S)NS(=O)(=O)c3cccs3)CC[C@@H]12 [14-4]    0.013
6) CC[C@H]1[C@@H](O)[C@@H]2[C@H](CC[C@]3(C)[C@@H]([C@H](C)CCNS(=O)(=O)c4cc(F)ccc4F)CC[C@@H]23)[C@@]2(C)CCCC[C@@H]12 [6-2]    0.016
7) [2H]C1CC[C@@]2(C)[C@@H](C1)[C@@H](CC)[C@@H](O)[C@@H]1[C@@H]2CC[C@]2(C)[C@@H]([C@H](C)CCC(=O)O)CC[C@@H]12 (some centres unmarked) [13-1]    0.018
8) CC[C@H]1[C@@H](O)[C@@H]2[C@H](CC[C@]3(C)[C@@H]([C@H](C)CCNC(=O)C(=O)NS(=O)(=O)c4ccc(C(C)(C)CF)cc4)CC[C@@H]23)[C@@]2(C)CCCC[C@@H]12 [8-3]    0.025
9) CC[C@H]1[C@@H](O)[C@@H]2[C@H](CC[C@]3(C)[C@@H]([C@H](C)CCNC(=O)NS(=O)(=O)c4cccs4)CC[C@@H]23)[C@@]2(C)CC[C@H](F)C[C@@H]12 [9-4]    0.019
10) CC[C@H]1[C@@H](O)[C@@H]2[C@H](CC[C@]3(C)[C@@H]([C@H](C)CCN=C=S)CC[C@@H]23)[C@@]2(C)CCCC[C@@H]12 [7-1]    0.011

Now for the compound whose MRGPRX4 activation, Average we want.
// query Give the measured MRGPRX4 activation, Average of [2H]C1([2H])CC[C@@]2(C)[C@@H](C1)[C@@H](CC)[C@@H](O)[C@@H]1[C@@H]2CC[C@]2(C)[C@@H]([C@H](C)CCN=C=S)CC[C@@H]12 [14-2] .
// result 0.020
